tested.system: α9*nAChR (alpha9-containing nicotinic ACh receptor) (Trachemys scripta)
Construct: native receptor in type II hair cells, intact split-epithelial posterior crista; read-out through coupled SK potassium current
Sequence (Q3L0X1 28-490): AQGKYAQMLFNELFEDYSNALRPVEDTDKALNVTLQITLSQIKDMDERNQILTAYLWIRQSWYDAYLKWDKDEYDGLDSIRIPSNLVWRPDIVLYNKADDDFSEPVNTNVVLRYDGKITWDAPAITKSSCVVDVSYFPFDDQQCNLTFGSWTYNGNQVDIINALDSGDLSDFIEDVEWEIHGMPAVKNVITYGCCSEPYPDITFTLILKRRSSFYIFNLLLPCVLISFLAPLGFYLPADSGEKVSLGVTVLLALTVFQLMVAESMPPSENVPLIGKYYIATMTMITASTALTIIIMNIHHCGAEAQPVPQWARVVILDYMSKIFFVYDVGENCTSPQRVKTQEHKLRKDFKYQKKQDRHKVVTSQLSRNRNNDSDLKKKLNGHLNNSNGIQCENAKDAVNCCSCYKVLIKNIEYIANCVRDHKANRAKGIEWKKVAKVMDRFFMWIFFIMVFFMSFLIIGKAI
Sequence (UPI001552A461 25-505 partner): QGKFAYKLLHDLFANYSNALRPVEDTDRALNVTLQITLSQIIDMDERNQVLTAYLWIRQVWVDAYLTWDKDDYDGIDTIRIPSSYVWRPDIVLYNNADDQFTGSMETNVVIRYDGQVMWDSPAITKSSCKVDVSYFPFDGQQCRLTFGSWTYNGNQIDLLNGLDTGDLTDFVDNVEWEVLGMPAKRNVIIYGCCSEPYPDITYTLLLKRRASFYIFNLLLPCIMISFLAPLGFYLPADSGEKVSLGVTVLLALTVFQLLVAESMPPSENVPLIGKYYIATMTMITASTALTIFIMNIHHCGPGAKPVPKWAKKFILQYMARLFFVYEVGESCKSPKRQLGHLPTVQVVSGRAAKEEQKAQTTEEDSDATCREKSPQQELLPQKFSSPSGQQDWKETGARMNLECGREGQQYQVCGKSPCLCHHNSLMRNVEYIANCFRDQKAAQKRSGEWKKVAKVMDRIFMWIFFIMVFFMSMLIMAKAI
assay.protocol: whole-cell patch clamp of type II hair cells, peak ACh-sensitive outward current, Hill fit
details: agonist; coupled SK current read-out at −17 mV; intact epithelium with acetylcholinesterase and diffusion barriers; pH 7.6; 21–25°C
endpoint.label: EC50 (µM)

>>> df
                 smiles  observed_value
0  CC(=O)OCC[N+](C)(C)C              76
